# SYSTEM: group V secreted PLA2 (sPLA2) (Homo sapiens)
# Sequence (P39877 21-138): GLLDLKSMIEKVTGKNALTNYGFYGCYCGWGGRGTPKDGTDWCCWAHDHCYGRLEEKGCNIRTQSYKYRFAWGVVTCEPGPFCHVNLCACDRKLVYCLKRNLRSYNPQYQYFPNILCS
# ASSAY OVERVIEW: Lipidomics LC-MS mixed micelle PLA2 assay, sPLA2
# Format: biochemical
# MEASUREMENT CONTEXT: IC50, single phospholipid PAPC; 16:0 LPC detected, positive ion mode
PROPERTY: pIC50
Convention used: pIC50 is expressed as -log10 of the molar concentration.

Prompt line: Using the record for CCc1c(C(=O)C(N)=O)c2c(OCC(=O)O)cccc2n1Cc1ccccc1 [Ly315920] , report its pIC50.
Response line: 6.98

----------
# SYSTEM: group V secreted PLA2 (sPLA2) (Homo sapiens)
# ASSAY OVERVIEW: Traditional radioactive assay
# Assay type: biochemical
PROPERTY: IC50 (µM)
Note: unit µM is implicit; provide only the numeric part.

Prompt line: IC50 lookup needed for CCc1c(C(=O)C(N)=O)c2c(OCC(=O)O)cccc2n1Cc1ccccc1 [Ly315920] , thanks.
Response line: 0.056

----------
# SYSTEM: group VIA calcium-independent (iPLA2) (Homo sapiens, UniProt O60733)
# Sequence (O60733 whole entry): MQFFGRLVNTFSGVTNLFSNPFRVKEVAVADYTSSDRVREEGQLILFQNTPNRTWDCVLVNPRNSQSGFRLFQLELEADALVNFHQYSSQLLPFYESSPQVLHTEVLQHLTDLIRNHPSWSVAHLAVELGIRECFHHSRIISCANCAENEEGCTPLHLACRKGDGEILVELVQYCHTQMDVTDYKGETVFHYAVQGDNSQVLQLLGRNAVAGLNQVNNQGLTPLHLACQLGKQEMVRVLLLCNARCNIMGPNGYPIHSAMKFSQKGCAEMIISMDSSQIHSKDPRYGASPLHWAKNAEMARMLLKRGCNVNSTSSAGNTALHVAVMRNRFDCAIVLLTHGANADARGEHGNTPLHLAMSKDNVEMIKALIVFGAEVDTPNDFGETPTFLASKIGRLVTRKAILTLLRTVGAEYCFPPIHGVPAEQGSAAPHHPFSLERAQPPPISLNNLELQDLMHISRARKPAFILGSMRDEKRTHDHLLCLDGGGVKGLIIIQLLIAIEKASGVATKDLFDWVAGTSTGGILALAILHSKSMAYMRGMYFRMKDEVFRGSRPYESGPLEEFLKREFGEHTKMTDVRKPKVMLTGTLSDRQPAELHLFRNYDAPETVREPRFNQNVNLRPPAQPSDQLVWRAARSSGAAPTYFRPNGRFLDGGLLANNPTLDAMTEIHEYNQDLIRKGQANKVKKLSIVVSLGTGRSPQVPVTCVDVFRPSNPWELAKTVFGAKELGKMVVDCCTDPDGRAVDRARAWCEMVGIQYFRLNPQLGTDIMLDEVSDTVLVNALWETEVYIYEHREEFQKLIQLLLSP
# ASSAY OVERVIEW: Lipidomics LC-MS mixed micelle PLA2 assay, iPLA2
# Assay type: biochemical
# MEASUREMENT CONTEXT: IC50, single phospholipid PAPC; 16:0 LPC detected, positive ion mode
PROPERTY: IC50 (nM)
API: value field is a number in nM; no unit string.

Prompt line: Report IC50 for `CCCCCCCCSCC(=O)C(F)(F)F` please.
Response line: 58

----------
# SYSTEM: group V secreted PLA2 (sPLA2) (Homo sapiens)
# ASSAY OVERVIEW: Lipidomics LC-MS mixed micelle PLA2 assay, sPLA2
# Assay type: biochemical
# MEASUREMENT CONTEXT: IC50, single phospholipid PAPG; free AA detected, negative ion mode
PROPERTY: pIC50
To interpret pIC50, take it as minus log10 of a concentration measured in moles per litre.

Prompt line: Requested read-out: pIC50. Entry: `CCc1c(C(=O)C(N)=O)c2c(OCC(=O)O)cccc2n1Cc1ccccc1`
Response line: 4.66

----------
# SYSTEM: group VIA calcium-independent (iPLA2) (Homo sapiens)
# ASSAY OVERVIEW: Lipidomics LC-MS mixed micelle PLA2 assay, iPLA2
# Assay type: biochemical
# MEASUREMENT CONTEXT: IC50, single phospholipid PAPC; free AA detected, negative ion mode
PROPERTY: pIC50
Worth noting: pIC50 values are minus log10 of concentrations stated in mol/L.

Prompt line: Entry under review: CCCCCCCCSCC(=O)C(F)(F)F [OTFP] . Reported pIC50?
Response line: 7.47
